Recorded values, source ChEMBL document CHEMBL1139355.

Assayed Target: Integrin alpha-4/beta-1 (Homo sapiens, UniProt P05556+P13612)
Sequence (P05556 whole entry): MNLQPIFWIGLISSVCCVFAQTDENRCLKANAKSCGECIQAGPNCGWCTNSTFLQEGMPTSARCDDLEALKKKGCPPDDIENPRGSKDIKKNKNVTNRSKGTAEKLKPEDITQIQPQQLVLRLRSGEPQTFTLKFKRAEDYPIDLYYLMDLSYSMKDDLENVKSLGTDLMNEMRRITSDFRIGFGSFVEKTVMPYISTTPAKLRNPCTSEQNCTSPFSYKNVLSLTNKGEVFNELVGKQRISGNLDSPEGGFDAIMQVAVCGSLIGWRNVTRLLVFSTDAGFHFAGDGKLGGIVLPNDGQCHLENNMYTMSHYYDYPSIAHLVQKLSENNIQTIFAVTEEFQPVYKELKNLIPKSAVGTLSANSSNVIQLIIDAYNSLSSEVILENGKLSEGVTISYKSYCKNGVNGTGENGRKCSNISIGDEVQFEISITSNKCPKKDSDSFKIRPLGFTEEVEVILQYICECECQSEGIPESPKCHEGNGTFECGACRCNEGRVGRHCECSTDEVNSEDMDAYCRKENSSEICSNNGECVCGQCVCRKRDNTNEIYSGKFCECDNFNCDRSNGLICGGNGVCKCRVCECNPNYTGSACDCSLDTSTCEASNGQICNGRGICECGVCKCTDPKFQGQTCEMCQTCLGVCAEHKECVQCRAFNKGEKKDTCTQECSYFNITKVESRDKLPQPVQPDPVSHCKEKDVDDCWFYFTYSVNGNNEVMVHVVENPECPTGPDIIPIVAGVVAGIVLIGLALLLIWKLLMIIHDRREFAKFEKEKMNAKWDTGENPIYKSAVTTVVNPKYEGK
Sequence (P13612 whole entry): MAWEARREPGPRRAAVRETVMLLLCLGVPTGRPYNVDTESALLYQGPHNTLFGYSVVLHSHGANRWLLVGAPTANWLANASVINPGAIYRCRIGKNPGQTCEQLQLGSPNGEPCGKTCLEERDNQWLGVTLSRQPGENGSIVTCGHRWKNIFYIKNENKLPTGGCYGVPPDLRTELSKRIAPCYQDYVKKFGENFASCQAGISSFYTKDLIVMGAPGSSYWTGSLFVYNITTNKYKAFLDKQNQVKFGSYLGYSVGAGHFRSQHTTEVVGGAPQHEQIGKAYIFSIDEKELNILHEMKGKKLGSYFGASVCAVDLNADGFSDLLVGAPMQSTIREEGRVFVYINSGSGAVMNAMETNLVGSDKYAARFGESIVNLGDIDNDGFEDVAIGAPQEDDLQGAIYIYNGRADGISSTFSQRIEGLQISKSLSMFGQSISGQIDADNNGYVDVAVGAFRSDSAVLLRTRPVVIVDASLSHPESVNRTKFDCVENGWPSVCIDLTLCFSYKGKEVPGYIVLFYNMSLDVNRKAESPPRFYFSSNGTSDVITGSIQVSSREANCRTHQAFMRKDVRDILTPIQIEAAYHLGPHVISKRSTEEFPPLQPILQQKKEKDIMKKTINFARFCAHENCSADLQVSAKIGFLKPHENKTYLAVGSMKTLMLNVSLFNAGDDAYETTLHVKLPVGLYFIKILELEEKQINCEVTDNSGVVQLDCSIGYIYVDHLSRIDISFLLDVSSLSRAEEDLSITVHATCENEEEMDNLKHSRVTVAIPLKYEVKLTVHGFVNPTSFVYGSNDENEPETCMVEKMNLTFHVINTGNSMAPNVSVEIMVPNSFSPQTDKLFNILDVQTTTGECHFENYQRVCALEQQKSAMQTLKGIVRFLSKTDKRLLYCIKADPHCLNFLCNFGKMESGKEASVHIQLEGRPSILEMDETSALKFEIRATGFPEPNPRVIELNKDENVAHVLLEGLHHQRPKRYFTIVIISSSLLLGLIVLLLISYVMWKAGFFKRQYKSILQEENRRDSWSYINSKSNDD
Method Description: Inhibition of human integrin alpha-4-beta-1-mediated MOLT4 cell adhesion to biotin-conjugated CS-1 peptide
Endpoint: IC50 (nM)

NC(=O)C1(NC(=O)[C@@H](CCCC(=O)O)NC(=O)[C@@H](CCCCNC(=O)/C=C/c2cccnc2)NC(=O)CCc2ccc(Nc3nc4cc(Br)ccc4[nH]3)cc2)CCCCC1 | 378
NC(=O)C1(NC(=O)[C@@H](CCCC(=O)O)NC(=O)[C@@H](CCCCNC(=O)/C=C/c2cccnc2)NC(=O)Cc2ccc(Nc3nc4ccccc4s3)cc2)CCCCC1 | 0.0525

1: NC(=O)C1(NC(=O)[C@@H](CCCC(=O)O)NC(=O)[C@@H](CCCCNC(=O)/C=C/c2cccnc2)NC(=O)c2ccc(Nc3nc4ccccc4s3)cc2)CCCCC1
2: NC(=O)C1(NC(=O)[C@H](CCCC(=O)O)NC(=O)[C@H](CCCCNC(=O)/C=C/c2cccnc2)NC(=O)Cc2ccc(Nc3nc4ccccc4[nH]3)cc2)CCCCC1
Query: Quick one: lower IC50, 1 or 2 ? // output: label of the selected item
Response: 2
